# Target or system: T1, Mouse-Fc-tagged SARS-CoV2 S1-RBD (Sino Biologicals) recombinant protein (SARS-CoV-2, UniProt P0DTC2 319-541)
# T1 construct: domain: S1-RBD
# Assay details: SPR, S1-RBD-mFc captured via anti-mouse-Fc antibody, 1:1 model

{"columns": ["Binder", "koff [s⁻¹]"],
 "data": [
  ["P043.A.00023.A08 (protein sample ID 446) (antibody, V domains shown) VH: QSVEESGGRLVTPGTPLTLTCTVSGFSLSKYAMSWVRQAPGKGLEWIGIISSGGSTYYASWAKGRFTISKTSSTTVDLKITSPTTEDTATYFCARAGYPGYSPHYFNIWGPGTLVTVSL VL: AIQMTQSPSSLAASVGDTVTITCKASEDIGYELNWYQQKLGIAPKLLIYGANTLESGVPSRFTGSGSETDYTLTISSVQAEDAGIYYCQQGYSTPPTFGAGTKVEIK", 0.000243]
]}
